# assay summary: soluble on expression in E. coli; label from the status in PepcDB or PDB records

# sequence, soluble on expression in E. coli
measured = [
    ("SFRMLSSSFEDDPFFADSFLAHRESMRNMMRSFSEPLGRDLLSISDGRGRTHNRRERDDGEDSLTATSFSLVPFGRFGGMHADVNPFQTMDRMMANMRSGIQELQRNFGQLSMDPNGHSFCSSSVMTYSKVGDEPPKVFQASTQTRRAPGGVKETRKAMRDSDSGLERMAVGHHIHDRGHVIRKSKNNKTGDEEVNQEFINMNESDAHAFDDEWQNEVLKYKSIGRSGNTGMRSVGHEHPGSRELKRREKIHRNSAIESGRRSNVFVDKLNVKGSPVKITKK", "soluble"),
    ("AALGPSSQNVTEYVVRVPKNTTKKYNIMAFNAADKVNFATWNQARLERDLSNKKIYQEEEMPESGAGSEFNRKLREEARRKKYGIVLKEFRPEDQPWLLRVNGKSGRKFKGIKKGGVTENTSYYIFTQCPDGAFEAFPVHNWYNFTPLARHRTLTAEEAEEEWERRNKVLN", "soluble"),
]

----------
# assay summary: soluble on expression in E. coli; label from the status in PepcDB or PDB records
endpoint label: soluble on expression in E. coli

# sequence, endpoint label, experimental value
records = [
    ("MSQLINLPMDQILYLSTSDIKHHVHLQTIHTLMDIRANLADFKKIHKKLYPCHRSYIVNTDMIISVNKTNYEATLINGQVLPVSRMKIGKIAQIVEERGRLEHHHHHH", "soluble on expression in E. coli", "not soluble"),
    ("MSLDFSEPLLGFEPRDTEIGRRLEVWKAMQALTGPKNLLSLSPDPEMNSSSLLSTLSPAAWGRAEESVVRTKRMVGPVEVKEEENFFCGRPEKSHAKLVFVSTSGGSLWNLQAIHSMCRIEQEQIRSHISFGALCQRSAANECCPSWSLGNYLAVLSNRSSCQDTTQADTDRTLALLRFCATFYHRGVLVPACVGSSQDKPPFCAQVPAKCTGSNVVYEFLHYLLDRDFLSPQTADYQVPSLKFALLFLPIIKTSSLLDIYLDGLGDPIKVSDNYTSISGMDLGLKPRLLKYYLAEDTEGHHHHHH", "soluble on expression in E. coli", "not soluble"),
]

----------
# assay summary: soluble on expression in E. coli; label from the status in PepcDB or PDB records
endpoint label: soluble on expression in E. coli

The examples below pair each entry with its known result.
# sequence, experimental value
data = [
    ("TARKCLLEKVEVITGEEAESNVLQMQCKLFVFDKTSQSWVERGRGLLRLNDMASTDDGTLQSRLVMRTQGSLRLILNTKLWAQMQIDKASEKSIHITAMDTEDQGVKVFLISASSKDTGQLYAALHHRILALRSRVE", "soluble"),
    ("MSLSYLPLDEYQRKWIFTHQSMPVPEEDLAQIKPMSQARSAQFWKENISAQSPDMDRLSSQDWPMKESNWSETVDWMAAWESDEPNMPTEVETHIDWQDDVTVYFCYEKYNVIETKWSIFKKHWKNFLFYDDGPMLLGRRRAQALWFDSKGNVKLGERHEGHHHHHH", "soluble"),
    ("MGSDKIHHHHHHMPADSVRPTWSLTDIPYATIEKEKIIGNTDWFYLLAGASFVETLSDLYTRNLVEYYQENVGATTWLRQEWEMEEVQHGHALRRYVLFVWPDFDWERAYQGFVTAYAPCCRTELLGPTHALEMASRCVVETGTASFYTMIQAASPEPVLRQIAAHIRADEVHHYKYFYRIFRQYQAAEKNSRWRIGRELWKRVAEAEQEDSYLAIKNAFEVKNPGEKFFIEDFAAFRKRIGGWVDRYYPFDMAIKMLLKPVALPPMLQRAALPLLSHGARRAILG", "not soluble"),
    ("MSEQYTTGVVVTGKVTGIQDYGAFVALDAETQGLVHISEITNGYVKDIHDFLKVGDTVEVKVLSIDEEHRKMSLSLKAAKRKQGRILIPNPSENGFNTLREKLTEWIEESELTK", "not soluble"),
]

Would you mind giving soluble on expression in E. coli for every sequence in the list below?
1. MPHFTKRPAQPQAALAEAAGLRWLAEASSAVAQVVSADAEQITTVGVETQLPTPDAAFKAGEELARIHLAGAPAFGCPPAGWAGLNYIGTQGQACLSTPTWGVFYSQQRVLPFARRARRRNHLTEHALWVVEAACDLISELPDDVPPARIHGDLWFGNLLFGTDGPVFIDPAAHGGHPETDLAMLDVFGAPYLDEIREGYLSINPLPDGWRERTPMHQLHPLAVHAASHGPSYGVELLHAAKATLKLLDLEHHHHHH
2. MGSDKIHHHHHHMIEVQKQIDLDLELDIYKKLLEDNILFFDIETTGFDKEKEKVVLISGGWFLQDKKFVIKQYFAESLDEEVQVLKAFKEDVTKFNSWCSYNGKAFDEPFIKKRMNINNIEFTPPREHIDLYRIIRPYYKQLGMERCNLKSVEKYLGIHRADKIDGGISVELYYNFLDTKDERLRYVIMLHNYEDVLNLPSIFKLTYDIEKNDTLKREGGITKKQLDYLRFLMKKNNIQVTDDLKKISKKSASRIIDSILRGNIDIDKFNAIIKDSY
3. GPLGSLVNVIRRESGNPDLLELLMDLNCYTLEVTEGYLKKVNVTEVNGDNVLGPIHVITTVVSSLVRNGLLIQSSKFISKVLLTVESIVMSLPKDETMLGGIFWLSNLSRLPAFAANQKTLYEANGGDEKDKLTLIYLNDLENETLKVFDKIYSTWLVKFMKHASAHIEIFDMVLNEKLFKNSGDEKFAKLFTFLNEFDAVLCKFQVVDSMHTKIFNDTLKYLNVMLFNDLITKCPALNWKYGYEVDRNIERLVSWFEPRIEDVRPNLIQIIQAVKILQLKISNLNEFKLLFDFWYALNPAQIQAILLKYKPANKGEAGVPNEILNYLANVIKRENLSLPGKMEIMLSAQFDSAKNHLRYDTSAITQNSNTEGLATVSKIIKLDRK
4. MPNPRRIVFGDVHGHFDALTALFEAIAPNERDGVYFVGDLIDRGPESAKVVDFVMENKYHCLLGNHEQMMLDAVGGFNFSPQLLHAWIYSGGKSTLESYEHQIPQSHVDWMRNLPLYLDLGDVWLVHAGVDPRLPIEEQGEAQFCWIRDEFHRYPYPYFANKLIITGHTITFTFANVEPGKLVSGPGWLDIDTGAYHPKSGWLTALELNNQEVYQAHIFTNEVRRLPLEDAVVPLEHHHHHH
5. MSHHRIIIIGAGAAGVGMAITLQEFNIKDVLIVEKGTIGHSFKHWPLSTKTITPSFTTNGFGMPDMNAIAKDTSPAFTFNEEHLSGKRYAEYLSLVATHYNLNVKTNTNVSRVTYIDGIYHVSTYYGVYTADYIFIATGDYSFPYHPFSYGLHYSEIQTFTQLKGDAFTIIGGNESAFDAAINLSQTGARISIYTSKTGLKKEDADPSIRLSPYTQQRLRNAIQEGALIEMHVGYQARKITYQNHSYKIHFDNGHIVHSHTEPIIATGFDVTQNPLIEQLFQVRQSEVQLTELDESTKFPNVFLIGATVRHQNAILCYIYKFRARFAVLARIVSLREGLPEDTSLIQSYRQKNMFLDDYSCCDVNCTCLEHHHHHH
6. MSRRSSSSDSAVYVNFLERERRADVEKAARLYETRRDRVEPSYVFPAPSGEKRVGPNSNTGQKGVVGSYPVSIDYLTVVFSYARLAEAGYFDEPRFLLYLLFGLSVDDVIVGSHTSVRWHFYNSSASIIDSNGDLVGKIGWDGNADSYCISLTGSACRYIHDWSKVKRSLASLDARITRCDVAYDDYDGILGTVRHHEALAREHLAPAGGCLLFSSGGTPPRTRFLDDHGGGSGCTLYVGQRGHKQLCIYEKGKQLGVAESPWVRYEVRLYAKHAVIPFDLLEEPMRYLRGSYDYLCQLFSSVVVSPVSRIRTVVKHVEATGEALVRWLRRQVGPALGVLRQALGCGFSDFIVDRVEREGLPSRFRRICRGGDLLAYLRETLIDCSVGVCV
7. GMCINRQILNAVTASNRKKNTPLNTYVSFDEPVNPEDDSQVKLVDVLKSDKEQNPERLFIDQENAESLEDKLYSVLSGFEKNVLELYMSGKDYIAIAQTLDKPPKSIDNAIQRIRNKVDKITNL
8. VSRDENSWLIDGATPLEEVTRVLDIAYFPDEENYETISGFMMYMLRKIPKKTDSVVYGKYKFEVIDTENFKIDQILVSLVKEQE

["not soluble", "not soluble", "soluble", "soluble", "not soluble", "not soluble", "not soluble", "not soluble"]

----------
# assay summary: soluble on expression in E. coli; label from the status in PepcDB or PDB records
endpoint label: soluble on expression in E. coli

# sequence, experimental value
data = [
    ("MATMSRRWNYFTPHYNDEGSIDVLDGKPPYIDLFDPLKQPLFQHLRSMHTEFSTTTADVNTTWEDASSTSSSNKGATIWFNEDAIDKSSRHEIGQSTVTHESEDDRFSFFNAVCTRLNSLQETKNSSETEEHAESPRKEKSSTPYGTDGFAPPPRSTQTNTLKVSNLPKRFESLYKKKRQQVATSDSSGFGSNASDFWSFERYGKSNQGTLERPNRLFTGTNNGFSTLQPKRRGSEAPKMTVELRYENDVPMVAKISANHAQSVTLRYFRHLFGLHYTDNCR", "not soluble"),
    ("MGSDKIHHHHHHMNYKTSIADNVTEKEISEKLGISLSTVKRSVSRLKNNKNLIDKVISNNVIAEGSYKTYNKYHVAKCNEDFFYIYNSFFNDDMNIAKASERIKIKNFLLKLKAICKKETNKYISESPYMDGLNKAELSKKLGIIDTKTLNKYLEMAVNAGQIKYITNGLLILNKSIIPDFKKDDTDTRIYHIIYDWCIDNDVVPPDRNDEIKIMEDGSVRRKNSLLLEIAGKLGYMKDEEIRSLLTNRITSEEITLEYIAKVLNIKNKKKKEEIEWPPIIMLD", "not soluble"),
]
